Test: Primary qHTS to identify inhibitors of SARS-CoV-2 cell entry (AID 1645846)
Details: SARS-CoV-2 pseudovirus cell entry assay, luminescence; at 57.1 µM (top of the series) unless noted
Records with an inconclusive call do not appear.
Binary classification by activity change, negative = inhibition, with -30% as an inclusive lower bound for fulfilled; all other cases are not fulfilled.

Sample answers from the record:
COc1cc2c(cc1OC)CN(CCc1ccc(NC(=O)c3cccc4c(=O)c5cccc(OC)c5[nH]c34)cc1)CC2 : fulfilled
CC(C)(C(=O)NCC(F)(F)C(F)(F)F)C(=O)N[C@@H]1C(=O)Nc2ccccc2-c2ccccc21 : fulfilled

Query :: Item CCCCCCCC(=O)OCC(O)CO (centres undefined) with activity change, negative = inhibition of -30% or above?
Result :: fulfilled

Query :: Item "CN(C)CCN(C)C(=O)c1ccc(NC(=O)Nc2ccc(-c3nc(N4CCOCC4)c4ccn(CC(F)(F)F)c4n3)cc2)cc1" with activity change, negative = inhibition of -30% or above?
Result :: not fulfilled

Query :: Item "COc1cc(Nc2ncc3c(n2)-c2ccc(Cl)cc2C(c2c(F)cccc2OC)=NC3)ccc1C(=O)O" with activity change, negative = inhibition of -30% or above?
Result :: not fulfilled

Query :: Item "Fc1ccc(Cl)cc1-c1nc(Nc2ccncc2)c2nccnc2n1" with activity change, negative = inhibition of -30% or above?
Result :: fulfilled

Query :: Item "C[C@]12CC[C@H]3[C@@H](CCC4=CC(=O)CC[C@@]43C)[C@H]1CC[C@H]2OC(=O)CCC1CCCC1" with activity change, negative = inhibition of -30% or above?
Result :: fulfilled

Query :: Item "CC[C@@]1(O)C(=O)OCc2c1cc1n(c2=O)Cc2cc3ccccc3nc2-1" with activity change, negative = inhibition of -30% or above?
Result :: not fulfilled

Query :: Item "NC(=O)c1ccc(N(C(N)=O)c2c(F)cccc2F)nc1-c1ccc(F)cc1F" with activity change, negative = inhibition of -30% or above?
Result :: fulfilled

The reported numbers originate from PubChem BioAssay (NCATS).
